# System: P. aeruginosa ATCC 9027
# assay.info: Antibacterial activity, pre-exposure
# Type: cell-based, Pseudomonas aeruginosa
# test.context: P. aeruginosa ATCC 9027, pre-exposure, 50 µM, ± SD
Strictly below 30% in Average inhibition %, planktonic cells viability: Criterion met. Otherwise: Criterion not met.

{"compound": "CCCCCCCCc1ccc2cc(CC(N)(CO)CO)ccc2c1 [Compound 79]", "answer.label": "Criterion met"}
{"compound": "CCCCCCCCCCOc1ccc(CCC(N)(CO)CO)cc1 [Compound 49]", "answer.label": "Criterion met"}
{"compound": "CCCCCCCCc1ccc(CC(N)(CO)CO)cc1 [Compound 44]", "answer.label": "Criterion not met"}
{"compound": "CCCCCCCCc1ccc2ccc(CC(N)(CO)CO)nc2c1 [Compound 82]", "answer.label": "Criterion not met"}
{"compound": "CCCCCc1ccc(-c2ccc(CCC(N)(CO)CO)cc2)cc1 [Compound 15]", "answer.label": "Criterion met"}
{"compound": "CCCCCCCCc1ccc2nc(CCC(N)(CO)CO)ccc2c1 [Compound 80]", "answer.label": "Criterion not met"}
{"compound": "CCCCCC/C=C/c1ccc(CCC(N)(CO)CO)cc1 [Compound 42]", "answer.label": "Criterion met"}
{"compound": "CCCCCCCCCCc1ccc(C(O)CC(N)(CO)CO)cc1 (stereo not shown) [Compound 55]", "answer.label": "Criterion not met"}
{"compound": "CCCCCCCCOc1ccc(CCC(N)(CO)CO)cc1 [Compound 48]", "answer.label": "Criterion met"}
{"compound": "CCCCCCCCc1ccc(C(O)CC(N)(CO)CO)cc1 (stereo not shown) [Compound 54]", "answer.label": "Criterion not met"}

###

# assay.info: Cytotoxicity, resazurin staining assay
# Type: cell-based, human
# test.context: human, HEp-2 cells; 24 h incubation

{"compound.string": "CCCCCCCCc1ccc(CCC(N)(CO)CO)cc1", "CC50 at 24 h": "> 40 µM"}
{"compound.string": "CCCCCCCCc1ccc2cc(CC(N)(CO)CO)ccc2c1", "CC50 at 24 h": "> 40 µM"}
{"compound.string": "CCCCCCCCc1cccc(CCC(N)(CO)CO)c1", "CC50 at 24 h": "> 40 µM"}

###

This section presents compounds with their documented Average inhibition %, biofilms viability values.
# Tested on: S. aureus ATCC 25923
# assay.info: Antibacterial activity, post-exposure on preformed 18-h-old biofilms
# Type: cell-based, Staphylococcus aureus
# test.context: 200 µM, ± SD

{"compound": "CCCCCc1ccc(-c2ccc(CCC(N)(CO)CO)cc2)cc1 [Compound 15]", "Average inhibition %, biofilms viability / %": 38.7}
{"compound": "CCCCCCCCCCOc1ccc(CCC(N)(CO)CO)cc1 [Compound 49]", "Average inhibition %, biofilms viability / %": 18.9}
{"compound": "CCCCCCCCOc1ccc(CCC(N)(CO)CO)cc1 [Compound 48]", "Average inhibition %, biofilms viability / %": 52}
{"compound": "CCCCCCCCc1ccc2cc(CC(N)(CO)CO)ccc2c1 [Compound 79]", "Average inhibition %, biofilms viability / %": 28.8}
{"compound": "CCCCCCCCCCc1ccc(CCC(N)(CO)CO)nc1 [Compound 62]", "Average inhibition %, biofilms viability / %": 99.3}
{"compound": "CCCCCCCCc1ccc(CCC(N)(CO)CO)cc1 [fingolimod, Fingolimod]", "Average inhibition %, biofilms viability / %": 77.3}

###

# System: S. aureus ATCC 25923
# assay.info: Antibacterial activity, pre-exposure (planktonic cells and biofilm formation)
# Type: cell-based, Staphylococcus aureus
# test.context: pre-exposure, 15 µM, ± SD
The following molecules are shown together with reported Average inhibition %, planktonic cells viability values.
value.type: Average inhibition %, planktonic cells viability (%)

{"molecule": "CCCCCc1ccc(-c2ccc(CCC(N)(CO)CO)cc2)cc1", "assay.system": "S. aureus ATCC 25923", "reported.result": 33.2}
{"molecule": "CCCCCCCCc1ccc2ccc(CC(N)(CO)CO)nc2c1", "assay.system": "S. aureus ATCC 25923", "reported.result": 99.6}
{"molecule": "CCCCCCCCc1ccc(C(O)CC(N)(CO)CO)cc1 (stereo not shown)", "assay.system": "S. aureus ATCC 25923", "reported.result": 8.5}
{"molecule": "CCCCCCCCCCOc1ccc(CCC(N)(CO)CO)cc1", "assay.system": "S. aureus ATCC 25923", "reported.result": 6.5}
{"molecule": "CCCCCCCCCCc1ccc(CCC(N)(CO)CO)nc1", "assay.system": "S. aureus ATCC 25923", "reported.result": 92.4}
{"molecule": "CCCCCCCCCCc1ccc(CCC(N)(CO)CO)cc1", "assay.system": "S. aureus ATCC 25923", "reported.result": 98.5}
{"molecule": "CCCCCCCCc1ccc2nc(CCC(N)(CO)CO)ccc2c1", "assay.system": "S. aureus ATCC 25923", "reported.result": 99.5}
{"molecule": "CCCCCCCCc1ccc2cc(CC(N)(CO)CO)ccc2c1", "assay.system": "S. aureus ATCC 25923", "reported.result": 99.8}
{"molecule": "CCCCCC/C=C/c1ccc(CCC(N)(CO)CO)cc1", "assay.system": "S. aureus ATCC 25923", "reported.result": 66.4}
{"molecule": "CCCCCCCCc1ccc(CCC(N)(CO)CO)cc1", "assay.system": "S. aureus ATCC 25923", "reported.result": 99.9}

Value source: paper PMC8296573
